Target: T1, hZαADAR1 (human, UniProt P55265)
T1 sequence: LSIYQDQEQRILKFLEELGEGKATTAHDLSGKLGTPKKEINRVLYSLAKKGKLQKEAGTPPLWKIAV
Experiment: MST; 20 mM NaCl; text says 1.8 uM; MST at 22 C, 5 nM labeled DNA, 0.5 mg/ml BSA, 0.05% Tween 20; 5 mM HEPES pH 7.5, 20 mM NaCl (Table 2); 20 mM HEPES pH 8.0, 100 mM NaCl (Table 4); 20 mM Tris-HCl pH 7.8, 150 mM KCl (Table 5)
Details: protein: recombinant; tags: N-terminal His6, cleaved by thrombin; chain copies: 2; label: 5'-Alexa647 on strand 1; blunt
MEASURED QUANTITY: Kd (nM)
Write the value in nM as a bare number.

Query: // lookup Kd for B-DNA 21 bp (dsDNA) DNA 1: TATGCAATCGTAATAAACCGT DNA 2: ACGGTTTATTACGATTGCATA
Result: 2700
